assay: Cytotoxicity in mock-infected MT-4 cells (MTT); type: cell-based; conditions: human, mock-infected MT-4 cells, concentration reducing absorbance of mock-infected MT-4 control by 50%
measurement-type: CC50 (µM)

• CCc1c(C)[nH]c(=O)c(I)c1Oc1cc(I)cc(CC#N)c1 = 63
• CCc1c(C)[nH]c(=O)c(CC)c1Oc1cc(C)cc(C)c1 = 10
• Cc1cc(C)cc(Sc2c(CN3CCOCC3)c(C)[nH]c(=O)c2I)c1 = 10
• C=Cc1c(Oc2cc(C)cc(C)c2)c(CC)c(C)[nH]c1=O = 10
• CCc1c(C)[nH]c(=O)c(I)c1Oc1cc(Br)cc(/C=C/C#N)c1 = 13
• CCc1c(C)[nH]c(=O)c(I)c1[S+]([O-])c1cc(C)cc(C)c1 (centres unmarked) = 50
